- target-or-system: F protein of wild type RSV A/Long (respiratory syncytial virus, strain …, UniProt P12568 26-574)
- Sequence (P12568 26-574): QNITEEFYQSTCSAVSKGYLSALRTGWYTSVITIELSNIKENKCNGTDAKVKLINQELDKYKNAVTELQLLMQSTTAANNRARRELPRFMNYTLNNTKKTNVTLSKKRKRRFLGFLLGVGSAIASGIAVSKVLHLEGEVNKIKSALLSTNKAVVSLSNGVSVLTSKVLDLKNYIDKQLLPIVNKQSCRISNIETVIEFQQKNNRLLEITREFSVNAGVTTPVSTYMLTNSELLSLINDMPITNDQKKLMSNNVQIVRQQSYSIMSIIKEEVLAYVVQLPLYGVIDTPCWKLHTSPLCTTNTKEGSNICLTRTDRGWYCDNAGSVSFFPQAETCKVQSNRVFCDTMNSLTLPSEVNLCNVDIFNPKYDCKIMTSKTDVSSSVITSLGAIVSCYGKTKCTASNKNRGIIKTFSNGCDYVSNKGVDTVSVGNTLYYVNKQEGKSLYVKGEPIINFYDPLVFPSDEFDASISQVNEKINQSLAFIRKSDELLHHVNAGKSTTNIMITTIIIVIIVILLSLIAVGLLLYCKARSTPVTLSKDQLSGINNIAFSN
- measurement-description: cell-based or functional assay
# label = fulfilled if Fold Difference (Control IC50) >= 20 fold else not fulfilled

Item A4B4 (monoclonal antibody) (antibody, V domains shown, also called A4B4/A4B4 (HC/LC)) VH: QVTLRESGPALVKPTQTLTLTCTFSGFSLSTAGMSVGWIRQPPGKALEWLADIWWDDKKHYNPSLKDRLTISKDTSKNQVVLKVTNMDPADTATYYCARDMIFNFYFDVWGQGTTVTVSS VL: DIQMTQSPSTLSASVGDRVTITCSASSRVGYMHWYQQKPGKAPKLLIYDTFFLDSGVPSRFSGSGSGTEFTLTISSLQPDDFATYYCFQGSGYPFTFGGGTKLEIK with Fold Difference (Control IC50) of 20 fold or above? fulfilled

Item P11d4 (monoclonal antibody) (antibody, V domains shown) VH: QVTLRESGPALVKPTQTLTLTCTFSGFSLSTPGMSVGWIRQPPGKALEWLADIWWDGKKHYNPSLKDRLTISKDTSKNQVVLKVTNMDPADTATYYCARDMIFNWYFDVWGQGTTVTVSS VL: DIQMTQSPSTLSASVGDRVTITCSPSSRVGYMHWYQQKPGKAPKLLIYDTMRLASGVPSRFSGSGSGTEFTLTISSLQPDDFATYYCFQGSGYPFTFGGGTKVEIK with Fold Difference (Control IC50) of 20 fold or above? not fulfilled

Item P12f2 (Fab) (Fab, V domains shown, also called Pf12; P1212) VH: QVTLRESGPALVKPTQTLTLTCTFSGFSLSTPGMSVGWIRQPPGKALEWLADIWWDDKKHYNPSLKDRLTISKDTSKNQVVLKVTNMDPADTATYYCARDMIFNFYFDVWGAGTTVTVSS VL: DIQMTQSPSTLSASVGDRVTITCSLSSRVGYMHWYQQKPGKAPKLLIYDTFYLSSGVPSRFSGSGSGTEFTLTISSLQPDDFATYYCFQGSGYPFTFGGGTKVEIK with Fold Difference (Control IC50) of 20 fold or above? not fulfilled

Item P12f4 (Fab) (Fab, V domains shown) VH: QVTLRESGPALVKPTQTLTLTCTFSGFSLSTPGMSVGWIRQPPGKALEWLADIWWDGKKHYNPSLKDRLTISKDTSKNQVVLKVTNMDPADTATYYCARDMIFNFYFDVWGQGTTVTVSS VL: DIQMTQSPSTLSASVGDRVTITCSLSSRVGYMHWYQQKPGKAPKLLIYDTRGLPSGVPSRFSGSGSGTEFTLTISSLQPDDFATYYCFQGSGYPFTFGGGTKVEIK with Fold Difference (Control IC50) of 20 fold or above? not fulfilled

Item A12a6 (Fab) (Fab, V domains shown) VH: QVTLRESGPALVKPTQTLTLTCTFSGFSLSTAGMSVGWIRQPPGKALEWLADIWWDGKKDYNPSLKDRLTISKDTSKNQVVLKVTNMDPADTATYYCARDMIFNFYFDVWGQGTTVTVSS VL: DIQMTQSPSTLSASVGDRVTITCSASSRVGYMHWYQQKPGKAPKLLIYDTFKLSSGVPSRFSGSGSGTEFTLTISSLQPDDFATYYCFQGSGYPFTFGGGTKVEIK with Fold Difference (Control IC50) of 20 fold or above? not fulfilled

The values you see were collected from patent US20020177126A1.
